Measured values drawn from patent US11912682B2 for this set.

Reported DC50 values for a set of compounds
Biological target: GSPT1 (Homo sapiens (Human), UniProt P15170+Q96SW2)
Sequence (P15170 whole entry): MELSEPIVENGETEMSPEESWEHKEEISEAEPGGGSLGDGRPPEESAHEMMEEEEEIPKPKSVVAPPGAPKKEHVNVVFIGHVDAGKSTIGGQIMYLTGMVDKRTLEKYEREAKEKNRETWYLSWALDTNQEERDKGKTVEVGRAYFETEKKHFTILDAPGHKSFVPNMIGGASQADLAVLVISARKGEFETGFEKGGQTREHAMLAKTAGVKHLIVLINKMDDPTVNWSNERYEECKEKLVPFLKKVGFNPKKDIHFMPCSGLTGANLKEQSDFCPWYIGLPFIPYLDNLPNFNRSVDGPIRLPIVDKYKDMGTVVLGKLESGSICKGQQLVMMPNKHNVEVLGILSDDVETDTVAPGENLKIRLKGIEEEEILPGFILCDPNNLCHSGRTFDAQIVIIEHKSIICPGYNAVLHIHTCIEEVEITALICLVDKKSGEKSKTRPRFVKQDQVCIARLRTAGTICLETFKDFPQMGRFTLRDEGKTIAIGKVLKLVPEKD
Sequence (Q96SW2 whole entry): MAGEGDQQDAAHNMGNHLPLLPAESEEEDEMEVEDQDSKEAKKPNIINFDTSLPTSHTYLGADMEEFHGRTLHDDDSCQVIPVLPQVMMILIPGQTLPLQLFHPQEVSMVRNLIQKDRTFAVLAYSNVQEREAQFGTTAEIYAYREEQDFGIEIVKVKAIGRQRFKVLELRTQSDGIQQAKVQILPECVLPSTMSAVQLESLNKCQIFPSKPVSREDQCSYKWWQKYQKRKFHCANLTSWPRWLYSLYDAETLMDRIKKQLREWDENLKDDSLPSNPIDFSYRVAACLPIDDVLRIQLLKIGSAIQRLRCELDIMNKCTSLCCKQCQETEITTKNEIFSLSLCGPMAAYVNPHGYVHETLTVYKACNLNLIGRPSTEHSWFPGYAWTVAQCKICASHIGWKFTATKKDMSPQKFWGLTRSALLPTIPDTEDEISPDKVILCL
Sequence (Q16531 2-1140 partner): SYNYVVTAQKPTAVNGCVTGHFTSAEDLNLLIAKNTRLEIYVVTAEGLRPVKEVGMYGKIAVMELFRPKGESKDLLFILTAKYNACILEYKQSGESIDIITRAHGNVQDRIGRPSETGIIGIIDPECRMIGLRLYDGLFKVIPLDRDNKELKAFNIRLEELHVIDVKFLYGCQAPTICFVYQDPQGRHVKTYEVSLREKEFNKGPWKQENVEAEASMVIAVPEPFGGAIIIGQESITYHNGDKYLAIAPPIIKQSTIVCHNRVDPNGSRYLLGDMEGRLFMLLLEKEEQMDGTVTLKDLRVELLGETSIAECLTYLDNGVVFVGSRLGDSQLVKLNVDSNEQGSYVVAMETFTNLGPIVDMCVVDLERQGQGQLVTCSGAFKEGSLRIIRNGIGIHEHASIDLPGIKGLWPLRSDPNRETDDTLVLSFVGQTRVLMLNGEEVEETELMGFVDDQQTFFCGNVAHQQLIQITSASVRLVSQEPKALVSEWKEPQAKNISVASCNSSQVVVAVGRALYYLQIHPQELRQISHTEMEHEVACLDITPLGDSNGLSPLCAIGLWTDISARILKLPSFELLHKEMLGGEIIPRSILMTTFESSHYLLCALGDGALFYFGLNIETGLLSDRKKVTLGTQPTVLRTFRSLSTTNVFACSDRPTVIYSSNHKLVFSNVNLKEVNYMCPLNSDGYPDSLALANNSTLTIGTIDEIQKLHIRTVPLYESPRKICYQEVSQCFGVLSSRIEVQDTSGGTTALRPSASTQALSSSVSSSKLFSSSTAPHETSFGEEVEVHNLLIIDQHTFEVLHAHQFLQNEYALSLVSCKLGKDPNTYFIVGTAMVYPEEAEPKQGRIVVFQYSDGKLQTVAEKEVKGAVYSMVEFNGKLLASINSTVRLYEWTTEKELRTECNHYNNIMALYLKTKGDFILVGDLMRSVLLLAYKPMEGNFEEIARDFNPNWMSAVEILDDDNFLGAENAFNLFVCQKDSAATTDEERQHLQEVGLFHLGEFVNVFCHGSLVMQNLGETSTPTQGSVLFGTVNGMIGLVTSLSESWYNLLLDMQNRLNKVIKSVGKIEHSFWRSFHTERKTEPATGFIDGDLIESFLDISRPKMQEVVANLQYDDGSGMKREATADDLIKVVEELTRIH
Assay: immunofluorescence assay for GSPT1 degradation in CAL-51 cells (Example 4)
Type: cell-based
Conditions: 6 hours, read-out: Activity for GSPT1 degradation, Code (DC50)

Consider the worked cases shown below.
| COMPOUND | DC50 |
| --- | --- |
| O=C1CCC(N2Cc3ccc(COC(=O)Nc4ccc(C5CC5)nc4)cc3C2=O)C(=O)N1 (stereo not drawn) | 30 to 300 nM |
| Cc1ccc(NC(=O)OCc2ccc3c(c2)C(=O)N(C2CCC(=O)NC2=O)C3)cc1OC(F)F (stereo not drawn) | < 30 nM |
| CN(C)C1CN(c2ccc(NC(=O)OCc3ccc4c(c3)C(=O)N(C3CCC(=O)NC3=O)C4)cn2)C1 (stereo not drawn) | > 300 nM |

Name the recorded DC50 of the item O=C1CCC(N2Cc3ccc(COC(=O)Nc4ccc5c(c4)CC(F)(F)O5)cc3C2=O)C(=O)N1 (stereo not drawn) in your answer. 30 to 300 nM

* * *

Target: CRBN-DDB1 (Homo sapiens (Human), UniProt Q96SW2)
Sequence (Q96SW2 whole entry): as the sequence (Q96SW2 whole entry) above
Sequence (Q16531 whole entry partner): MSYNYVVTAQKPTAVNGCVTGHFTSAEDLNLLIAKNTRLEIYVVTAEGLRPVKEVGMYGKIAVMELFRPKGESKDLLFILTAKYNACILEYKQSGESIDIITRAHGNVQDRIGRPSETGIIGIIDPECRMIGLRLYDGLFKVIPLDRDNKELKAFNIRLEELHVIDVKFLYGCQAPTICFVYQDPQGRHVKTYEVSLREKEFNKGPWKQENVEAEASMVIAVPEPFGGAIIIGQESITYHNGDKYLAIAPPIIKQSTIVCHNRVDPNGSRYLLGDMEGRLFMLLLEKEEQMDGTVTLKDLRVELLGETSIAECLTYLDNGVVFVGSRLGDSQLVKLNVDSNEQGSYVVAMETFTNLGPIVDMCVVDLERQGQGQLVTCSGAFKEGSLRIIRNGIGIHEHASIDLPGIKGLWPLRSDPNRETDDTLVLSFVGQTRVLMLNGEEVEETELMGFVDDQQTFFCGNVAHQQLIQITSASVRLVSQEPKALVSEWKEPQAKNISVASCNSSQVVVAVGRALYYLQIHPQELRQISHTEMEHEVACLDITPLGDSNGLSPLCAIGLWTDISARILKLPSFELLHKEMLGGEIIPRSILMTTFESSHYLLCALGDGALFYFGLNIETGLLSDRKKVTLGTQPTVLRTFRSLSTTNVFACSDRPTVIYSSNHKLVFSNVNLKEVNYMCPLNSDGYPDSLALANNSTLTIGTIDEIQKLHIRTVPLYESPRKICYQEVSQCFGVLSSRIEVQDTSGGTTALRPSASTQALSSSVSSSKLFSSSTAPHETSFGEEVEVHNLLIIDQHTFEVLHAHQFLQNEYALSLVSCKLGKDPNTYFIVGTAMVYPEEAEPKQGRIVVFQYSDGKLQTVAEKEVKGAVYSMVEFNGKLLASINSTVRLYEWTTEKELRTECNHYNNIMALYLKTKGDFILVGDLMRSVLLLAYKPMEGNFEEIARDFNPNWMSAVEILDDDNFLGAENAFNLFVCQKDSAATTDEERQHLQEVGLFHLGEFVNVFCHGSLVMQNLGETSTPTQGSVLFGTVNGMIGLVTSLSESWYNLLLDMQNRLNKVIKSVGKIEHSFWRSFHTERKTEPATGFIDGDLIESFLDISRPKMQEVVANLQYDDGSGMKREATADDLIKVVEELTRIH
Assay: Homogenous Time-Resolved Fluorescence (HTRF) binding assay to CRBN
OBSERVED_PROPERTY: IC50

Name the recorded IC50 of the item COc1ccc(C(F)(F)C23CC(NC(=O)OCc4ccc5c(c4)C(=O)N(C4CCC(=O)NC4=O)C5)(C2)C3)cc1 (stereo not shown) [Compound 214] in your answer. < 100 nM

* * *

Reported DC50 values for a set of compounds
Biological target: GSPT1 (Homo sapiens (Human), UniProt P15170+Q96SW2)
Assay: immunofluorescence assay for GSPT1 degradation in CAL-51 cells (Example 4)
Assay type: cell-based
Details: 6 hours, read-out: Activity for GSPT1 degradation, Code (DC50)

Consider the worked cases shown below.
| COMPOUND | OBSERVED_VALUE |
| --- | --- |
| N#Cc1cc(Cl)cc(NC(=O)OCc2ccc3c(c2)C(=O)N(C2CCC(=O)NC2=O)C3)c1 (centres unmarked) | 30 to 300 nM |
| O=C1CCC(N2Cc3ccc(COC(=O)NC4CCCCC4)cc3C2=O)C(=O)N1 (centres unmarked) | > 300 nM |
| Cc1ccc(NC(=O)OCc2ccc3c(c2)C(=O)N(C2CCC(=O)NC2=O)C3)cc1Cl (centres unmarked) | < 30 nM |
| O=C1CCC(N2Cc3ccc(COC(=O)NC4COC(c5ccccc5)OC4)cc3C2=O)C(=O)N1 (centres unmarked) | > 300 nM |
| Cc1cc(C)c(F)c(NC(=O)OCc2ccc3c(c2)C(=O)N(C2CCC(=O)NC2=O)C3)c1 (centres unmarked) | 30 to 300 nM |

Name the recorded DC50 of the item Cc1cc(NC(=O)OCc2ccc3c(c2)C(=O)N(C2CCC(=O)NC2=O)C3)cc(C)c1F (centres unmarked) in your answer. 30 to 300 nM

Name the recorded DC50 of the item Cc1c(Cl)cc(NC(=O)OCc2ccc3c(c2)C(=O)N(C2CCC(=O)NC2=O)C3)cc1CN1CCOCC1 (centres unmarked) in your answer. < 30 nM

Name the recorded DC50 of the item Cc1c(Cl)cc(NC(=O)OCc2ccc3c(c2)C(=O)N(C2CCC(=O)NC2=O)C3)cc1OCC1CCNC1 (centres unmarked) in your answer. > 300 nM

* * *

Reported DC50 values for a set of molecules
Biological target: GSPT1 (Homo sapiens (Human), UniProt P15170+Q96SW2)
Assay: immunofluorescence assay for GSPT1 degradation in CAL-51 cells (Example 4)
Format: cell-based
Conditions: 6 hours, read-out: Activity for GSPT1 degradation, Code (DC50)

| MOLECULE | DC50 |
| --- | --- |
| Cc1ncc(NC(=O)OCc2ccc3c(c2)C(=O)N(C2CCC(=O)NC2=O)C3)cc1Cl (centres unmarked) [Compound 6] | < 0.03 µM |

Name the recorded DC50 of the item CC(C)(C)c1cccc(NC(=O)OCc2ccc3c(c2)C(=O)N(C2CCC(=O)NC2=O)C3)c1 (centres unmarked) [Compound 153] in your answer. < 0.03 µM

Name the recorded DC50 of the item O=C1CCC(N2Cc3ccc(COC(=O)Nc4cc(-c5ccccc5)ccn4)cc3C2=O)C(=O)N1 (centres unmarked) [Compound 155] in your answer. 0.03 to 0.3 µM

Name the recorded DC50 of the item O=C1CCC(N2Cc3ccc(COC(=O)Nc4cc(F)cc(OC(F)F)c4)cc3C2=O)C(=O)N1 (centres unmarked) [Compound 31] in your answer. 0.03 to 0.3 µM

Name the recorded DC50 of the item CC(C)(C)c1ccc(NC(=O)OCc2ccc3c(c2)C(=O)N(C2CCC(=O)NC2=O)C3)c(F)c1 (centres unmarked) [Compound 142] in your answer. 0.03 to 0.3 µM

* * *

Molecular target: Full length wild-type cereblon CRBN (Homo sapiens (Human), UniProt Q96SW2)
Sequence (Q96SW2 whole entry): as the sequence (Q96SW2 whole entry) above
Assay: fluorescence polarization (FP) assay, cereblon binding
Settings: read-out: rFP IC50
pIC50: −log10 of the molar value.
OBSERVED_PROPERTY: pIC50

Consider the worked cases shown below.
| MOLECULE | OBSERVED_PROPERTY | OBSERVED_VALUE |
| --- | --- | --- |
| O=C1CCC(N2Cc3ccc(COC(=O)Nc4ccc(F)c(OC(F)(F)F)c4)cc3C2=O)C(=O)N1 (centres unmarked) | pIC50 | < 5.77 |
| Cc1cc(C#N)cc(NC(=O)OCc2ccc3c(c2)C(=O)N(C2CCC(=O)NC2=O)C3)c1 (centres unmarked) | pIC50 | > 6.30 |
| O=C1CCC(N2Cc3ccc(COC(=O)Nc4cc(OC(F)(F)F)ccn4)cc3C2=O)C(=O)N1 (centres unmarked) | pIC50 | > 6.30 |
| O=C1CCC(N2Cc3ccc(COC(=O)Nc4ccc(OC(F)(F)F)cc4F)cc3C2=O)C(=O)N1 (centres unmarked) | pIC50 | < 5.77 |
| O=C1CCC(N2Cc3ccc(COC(=O)Nc4ccc(N5CCCC(F)(F)C5)nc4)cc3C2=O)C(=O)N1 (centres unmarked) | pIC50 | > 6.30 |

Name the recorded pIC50 of the item CC1CCCN1c1ccc(NC(=O)OCc2ccc3c(c2)C(=O)N(C2CCC(=O)NC2=O)C3)cn1 (centres unmarked) in your answer. > 6.30

Name the recorded pIC50 of the item CC(OC(=O)Nc1cccc(OC(F)(F)F)c1)c1ccc2c(c1)C(=O)N(C1CCC(=O)NC1=O)C2 (centres unmarked) in your answer. < 5.77

Name the recorded pIC50 of the item O=C1CCC(N2Cc3ccc(COC(=O)Nc4ccc(-c5ccccn5)cc4)cc3C2=O)C(=O)N1 (centres unmarked) in your answer. < 5.77

Name the recorded pIC50 of the item CC(C)(C)c1cc(NC(=O)OCc2ccc3c(c2)C(=O)N(C2CCC(=O)NC2=O)C3)ccn1 (centres unmarked) in your answer. > 6.30

Name the recorded pIC50 of the item O=C1CCC(N2Cc3ccc(COC(=O)Nc4cnc5c(c4)COCC5)cc3C2=O)C(=O)N1 (centres unmarked) in your answer. > 6.30

Name the recorded pIC50 of the item O=C1CCC(N2Cc3ccc(COC(=O)Nc4ccc(-c5ccccc5)cn4)cc3C2=O)C(=O)N1 (centres unmarked) in your answer. < 5.77

Name the recorded pIC50 of the item O=C1CCC(N2Cc3ccc(COC(=O)Nc4ccc5c(c4)CCO5)cc3C2=O)C(=O)N1 (centres unmarked) in your answer. > 6.30

Name the recorded pIC50 of the item O=C1CCC(N2Cc3ccc(COC(=O)Nc4cc(F)cc(OC(F)(F)F)c4)cc3C2=O)C(=O)N1 (centres unmarked) in your answer. < 5.77

Name the recorded pIC50 of the item O=C1CCC(N2Cc3ccc(COC(=O)Nc4cc(-c5ccccc5)ccn4)cc3C2=O)C(=O)N1 (centres unmarked) in your answer. < 5.77

Name the recorded pIC50 of the item O=C1CCC(N2Cc3ccc(COC(=O)N4CCC(Oc5ccccc5)C4)cc3C2=O)C(=O)N1 (centres unmarked) in your answer. > 6.30

Name the recorded pIC50 of the item O=C1CCC(N2Cc3ccc(COC(=O)Nc4ccc(N5CCC5)nc4)cc3C2=O)C(=O)N1 (centres unmarked) in your answer. > 6.30

Name the recorded pIC50 of the item O=C1CCC(N2Cc3ccc(COC(=O)Nc4ccc(-c5ccccc5F)nc4)cc3C2=O)C(=O)N1 (centres unmarked) in your answer. > 6.30

Name the recorded pIC50 of the item CC(C)(C)c1ccc(NC(=O)OCc2ccc3c(c2)C(=O)N(C2CCC(=O)NC2=O)C3)cn1 (centres unmarked) in your answer. < 5.77

Name the recorded pIC50 of the item CC1CCN(c2ccc(NC(=O)OCc3ccc4c(c3)C(=O)N(C3CCC(=O)NC3=O)C4)cn2)C1 (centres unmarked) in your answer. > 6.30

Name the recorded pIC50 of the item O=C1CCC(N2Cc3ccc(COC(=O)NCC4CC4)cc3C2=O)C(=O)N1 (centres unmarked) in your answer. < 5.77
